# System: BxPC-3
# Method Description: In vitro cell proliferation assay (MTT)
# Format: cell-based
# Test Context: Homo sapiens, BXPC-3, 72 h
pEC50: −log10 of the molar value.
Parameter: pEC50. Scope: all listed entries.

Below are worked cases with known answers.
COC(=O)c1cc2cc(NCc3cc(NC(=O)c4ccc(-c5csc(C)n5)cc4)ccc3C)cnc2[nH]1 [OR0620]; ≤ 6.00
CCCOC(=O)c1cc2cc(NCc3cc(NC(=O)c4ccc(CN5CCN(C)CC5)c(C(F)(F)F)c4)ccc3C)cnc2[nH]1 [OR0697]; 6.00 to 7.00
COC(=O)c1cc2cc(NCc3cc(NC(=O)c4cc(Nc5cc[nH]n5)cc(C(F)(F)F)c4)ccc3C)cnc2[nH]1 [OR0642]; 6.00 to 7.00
COC(=O)c1cc2cc(NCc3cc(NC(=O)c4cccc(OC(F)(F)F)c4)ccc3C)cnc2[nH]1 [OR0611]; ≥ 7.00
COC(=O)c1cc2cc(NCc3cc(NC(=O)c4ccc(CN5CCNCC5)c(C(F)(F)F)c4)ccc3C)cnc2[nH]1 [OR0613]; 6.00 to 7.00
COC(=O)c1cc2cc(NCc3cc(NC(=O)c4cccc(C)c4)ccc3C)cnc2[nH]1 [OR0607]; 6.00 to 7.00
COC(=O)c1cc2cc(NCc3cc(NC(=O)c4ccc(Cn5cnc(C)c5)c(C(F)(F)F)c4)ccc3C)cnc2[nH]1 [OR0639]; 6.00 to 7.00
COC(=O)c1cc2cc(NCc3cc(NC(=O)c4cc(N(C)C)cc(C(F)(F)F)c4)ccc3C)cnc2[nH]1 [OR0597]; 6.00 to 7.00

Look up pEC50: COC(=O)c1cc2cc(NCc3cc(NC(=O)c4cc(CN5CCN(C)CC5)cc(C(F)(F)F)c4)ccc3C)cnc2[nH]1 [OR0699] ≥ 7.00

Looking for the measured pEC50 of COC(=O)c1cc2cc(NCc3cc(NC(=O)c4ccc(CNCCN5CCN(C)CC5)c(C(F)(F)F)c4)ccc3C)cnc2[nH]1 [OR0637] , can you help? ≤ 6.00

Which pEC50 is listed for COC(=O)c1cc2cc(NCc3cc(NC(=O)c4ccc5[nH]ccc5c4)ccc3C)cnc2[nH]1 [OR0617] ? ≤ 6.00

Fill blank: measured pEC50 of the compound COC(=O)c1cc2cc(NCc3cc(NC(=O)Cc4cccc(C(F)(F)F)c4)ccc3C)cnc2[nH]1 [OR0601] is ____. ≤ 6.00

Which pEC50 is listed for COC(=O)c1cc2cc(NCc3cc(NC(=O)c4ccc(O)c(C(F)(F)F)c4)ccc3C)cnc2[nH]1 [OR0605] ? ≤ 6.00

Any idea what its pEC50 is? The compound is COC(=O)c1cc2cc(NCc3cc(NC(=O)Nc4cccc(C(F)(F)F)c4)ccc3C)cnc2[nH]1 [OR0603] 6.00 to 7.00

###

# Study System: ABL T315I (Homo sapiens, UniProt P00519, T315I)
# Construct: purchased Invitrogen
# Method Description: In vitro kinase assay (Z′-LYTE)
# Assay type: biochemical
# Test Context: read-out: % of inhibition of the kinase compared to the control
Metric: inhibition at 10 µM

COC(=O)c1cc2cc(NCc3cc(NC(=O)c4cncc(C(F)(F)F)c4)ccc3C)cnc2[nH]1; < 50%
COC(=O)c1cc2cc(NCc3cc(NC(=O)C4CCC(C(F)(F)F)CC4)ccc3C)cnc2[nH]1 (centres unmarked); < 50%
COC(=O)c1cc2cc(NCc3cc(NC(=O)c4ccc5[nH]ccc5c4)ccc3C)cnc2[nH]1; < 50%
COC(=O)c1cc2cc(NCc3cc(NC(=O)c4cccc5c4OCC5)ccc3C)cnc2[nH]1; < 50%
COC(=O)c1cc2cc(NCc3cc(NC(=O)c4ccc(Cn5cnc(C)c5)c(C(F)(F)F)c4)ccc3C)cnc2[nH]1; ≥ 50%
COC(=O)c1cc2cc(NCc3cc(NC(=O)c4ccc(CNCCN5CCN(C)CC5)c(C(F)(F)F)c4)ccc3C)cnc2[nH]1; ≥ 50%

// inhibition at 10 µM lookup, key: `COC(=O)c1cc2cc(NCc3cc(NC(=O)c4cccc(Br)c4)ccc3C)cnc2[nH]1` < 50%

Consider the compound shown here: `COC(=O)c1cc2cc(NCc3cc(NC(=O)Cc4ccccc4Br)ccc3C)cnc2[nH]1` What is its recorded inhibition at 10 µM? < 50%
